# SYSTEM_TESTED: T1, IL-23 receptor on the surface of HEK-Blue IL-23 cells (UniProt Q5VWK5 24-629, limits assumed)
# T1 sequence (looked up): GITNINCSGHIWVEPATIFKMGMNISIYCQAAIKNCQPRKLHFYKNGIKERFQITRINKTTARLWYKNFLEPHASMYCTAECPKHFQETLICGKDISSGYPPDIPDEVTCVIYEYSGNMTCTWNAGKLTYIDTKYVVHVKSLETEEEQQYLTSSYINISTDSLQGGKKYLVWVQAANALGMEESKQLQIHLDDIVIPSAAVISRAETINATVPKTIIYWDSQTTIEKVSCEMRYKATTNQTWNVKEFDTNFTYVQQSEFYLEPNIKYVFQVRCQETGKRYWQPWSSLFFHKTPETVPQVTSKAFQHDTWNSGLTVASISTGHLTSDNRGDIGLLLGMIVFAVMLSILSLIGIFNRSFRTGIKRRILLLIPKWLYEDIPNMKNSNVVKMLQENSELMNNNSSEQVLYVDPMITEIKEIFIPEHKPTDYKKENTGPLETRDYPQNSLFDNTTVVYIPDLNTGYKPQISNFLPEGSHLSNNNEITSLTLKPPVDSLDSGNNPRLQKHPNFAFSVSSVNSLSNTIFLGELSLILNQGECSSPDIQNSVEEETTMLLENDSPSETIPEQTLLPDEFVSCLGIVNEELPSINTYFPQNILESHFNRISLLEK
# PROCEDURE_TEXT: cell-based or functional assay
Starred links: 1 amine or outer side, 2 acyl side, 3 side chain; linkers in the order of their positions; H or OH if unused. Positions of bridges follow the written chain, without caps; N, C: chain ends. Non-standard residues stand in square brackets, D forms with d. No end group written: not given here. Phe(4-OMe) = COc1ccc(C[C@H](N[*:1])C(=O)[*:2])cc1; Tyr(Me) = COc1ccc(C[C@H](N[*:1])C(=O)[*:2])cc1; 2Nal = N[C@@H](Cc1ccc2ccccc2c1)C(=O)O; AEF = NCCOc1ccc(C[C@H](N)C(=O)O)cc1; Dad = desamino-aspartamic acid; Nmapt = not defined here; Thp = NC1(C(=O)O)CCOCC1; Aib = CC(C)(N)C(=O)O; Ahx = NCCCCCC(=O)O
ENDPOINT: pSTAT3 (nM)
Give just the numeric value; nM need not be written.

Task: Entry [Nmapt]CKWQC[AEF][2Nal][Thp]EA[dL]-NH2 (lactam N-10; disulfide 2-6; not fully specified (residue 3); printed as Nmapt(§1)-C(§3)(@2)-K[aAc](@3)-W-Q-C(@2)-Yae-Nal-Thp-E(§1)-A-(D-Leu)-NH2; reading uncertain; also: Cys2 carboxyl joined to Lys3 epsilon-NH2 (isopeptide bond)) [Compound of SEQ ID NO: 34] has what pSTAT3 (nM)?
Result: 13.3

Task: Requested field: pSTAT3 (nM). Item: [Nmapt]CKWQC[AEF][2Nal][Aib]ENG-NH2 (lactam N-10; disulfide 2-6; not fully specified (residue 3); printed as Nmapt(§1)-C(§3)(@2)-K[aAc](@3)-W-Q-C(@2)-Yae-Nal-Aib-E(§1)-N-G-NH2; reading uncertain; also: K3 acetylated (K[aAc]), acetyl site not given here, ε-NH2 takes the Cys2 bond) [Compound of SEQ ID NO: 15]
Result: 29.2

Task: Which pSTAT3 (nM) is listed for [Ahx]CNTWQC[Phe(4-OMe)][2Nal][Aib]DNN-NH2 (lactam N-11; disulfide 2-7; SMILES COc1ccc(C[C@@H]2NC(=O)[C@@H]3CSSC[C@H](NC(=O)CCCCCNC(=O)C[C@@H](C(=O)N[C@@H](CC(N)=O)C(=O)N[C@@H](CC(N)=O)C(N)=O)NC(=O)C(C)(C)NC(=O)[C@H](Cc4ccc5ccccc5c4)NC2=O)C(=O)N[C@@H](CC(N)=O)C(=O)N[C@@H]([C@@H](C)O)C(=O)N[C@@H](Cc2c[nH]c4ccccc24)C(=O)N[C@@H](CCC(N)=O)C(=O)N3)cc1) [Compound of SEQ ID NO: 3] ?
Result: 17.2

Task: What pSTAT3 (nM) value was documented for this binder, [Dad]CNTWQC[Phe(4-OMe)][2Nal][Aib]KNN-NH2 (lactam (positions not given here); disulfide 2-7; not fully specified (bridges); printed as Dad(§1)-C(@2)-N-T-W-Q-C(@2)-Yme-Nal-Aib-K(§1)-N—N—NH2) [Compound of SEQ ID NO: 11] ?
Result: 53.5

Task: Look at this binder and give its reported pSTAT3 (nM). K(Ac)CNTWQC[Tyr(Me)][2Nal][Aib]DNN-NH2 (lactam (positions not given here); disulfide 2-7; not fully specified (bridges); printed as K[Ac](§1)-C(@2)-N-T-W-Q-C(@2)-Yme-Nal-Aib-D(§1)-N—N—NH2; also: K1 acetylated, whether acetyl is on alpha-N or epsilon-N (lactam via the other amine) not settled, §1 lactam bridge; @2 disulfide bridge) [Compound of SEQ ID NO: 7]
Result: 25
